Please go through the items and note down their IC50.
target: KRAS G12S (Homo sapiens, UniProt P01116+P62937, G12S)
Sequence (P01116 1-169 isoform P01116-2 G12S limits assumed): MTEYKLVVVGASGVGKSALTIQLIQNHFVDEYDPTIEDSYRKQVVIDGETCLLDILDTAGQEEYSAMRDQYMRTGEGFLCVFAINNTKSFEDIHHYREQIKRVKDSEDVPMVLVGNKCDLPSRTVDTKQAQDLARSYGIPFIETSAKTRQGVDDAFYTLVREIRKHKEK
Sequence (P62937 whole entry): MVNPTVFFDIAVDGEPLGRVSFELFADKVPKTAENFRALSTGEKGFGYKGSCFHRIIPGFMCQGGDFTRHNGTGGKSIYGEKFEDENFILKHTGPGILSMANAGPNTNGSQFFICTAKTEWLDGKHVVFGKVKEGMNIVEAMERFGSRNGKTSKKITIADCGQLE
assay_overview: Disruption of BRAF RBD interaction with Ras (FRET / MOA assay, with Cyclophilin A)
Type: biochemical
experimental_context: read-out: KRAS G12S FRET data, IC50

Entry CCn1c(-c2cccnc2[C@H](C)OC)c2c3cc(ccc31)-c1csc(n1)C[C@H](NC(=O)[C@H](C(C)C)N(C)C(=O)N(C)C1CC1)C(=O)N1CCC[C@H](N1)C(=O)OCC(C)(C)C2 — recorded IC50 = 100 to 1000 nM

Entry CCn1c(-c2cccnc2[C@H](C)OC)c2c3cc(ccc31)-c1cc(O)cc(c1)C[C@H](NC(=O)[C@H](C(C)C)N(C)C(=O)[C@H]1CCN(C)C1)C(=O)N1CCC[C@H](N1)C(=O)OCC(C)(C)C2 — recorded IC50 = 10 to 100 nM

Entry CCn1c(-c2cccnc2[C@H](C)OC)c2c3cc(ccc31)-c1csc(n1)C[C@H](NC(=O)[C@H](C(C)C)N(C)C(=O)N1CC3(CN(C)CCO3)C1)C(=O)N1CCC[C@H](N1)C(=O)OCC(C)(C)C2 — recorded IC50 = 1000 to 10000 nM

Entry C=CC(=O)N1CC[C@H](C(=O)N(C)[C@H](C(=O)N[C@H]2Cc3cc(O)cc(c3)-c3ccc4c(c3)c(c(-c3cnccc3[C@H](C)OC)n4CC)CC(C)(C)COC(=O)[C@@H]3CCCN(N3)C2=O)C(C)C)C1 — recorded IC50 = 10 to 100 nM

----------
Please go through the items and note down their pIC50.
target: KRAS WT (Homo sapiens, UniProt P01116+P62937)
Sequence (P01116 1-169 isoform P01116-2 limits assumed): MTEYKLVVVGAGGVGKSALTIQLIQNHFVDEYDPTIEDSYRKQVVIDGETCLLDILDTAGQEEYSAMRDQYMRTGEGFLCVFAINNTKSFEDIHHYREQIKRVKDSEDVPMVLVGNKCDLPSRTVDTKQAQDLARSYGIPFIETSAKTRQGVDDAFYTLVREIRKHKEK
Sequence (P62937 whole entry): as the sequence (P62937 whole entry) above
assay_overview: Ras-Raf disruption / FRET / MOA assay (BRAF RBD)
Assay type: biochemical
experimental_context: Ras-Raf disruption, with Cyclophilin A; read-out: KRAS WT FRET data IC50
pIC50: −log10 of the molar value.

Entry CCn1c(-c2cccnc2[C@H](C)OC)c2c3cc(ccc31)-c1cc(O)cc(c1)C[C@H](NC(=O)[C@H](C(C)C)N1CC[C@@]3(CCN(C[C@@H]4CN4)C3)C1=O)C(=O)N1CCC[C@H](N1)C(=O)OCC(C)(C)C2 — recorded pIC50 = 7.00 to 8.00

Entry CCn1c(-c2cccnc2[C@H](C)OC)c2c3cc(ccc31)-c1cccc(c1)C[C@H](NC(=O)[C@H](C(C)C)N(C)C(=O)[C@H]1CCN(C(=O)[C@H]3CN3)C1)C(=O)N1CCC[C@H](N1)C(=O)OCC(C)(C)C2 — recorded pIC50 = 5.00 to 6.00

Entry CCn1c(-c2cccnc2[C@H](C)OC)c2c3cc(ccc31)-c1cc(O)cc(c1)C[C@H](NC(=O)[C@H](C(C)C)N(C)C(=O)C1CC3(C1)CN(C(=O)[C@H]1CN1)C3)C(=O)N1CCC[C@H](N1)C(=O)OCC(C)(C)C2 — recorded pIC50 = 6.00 to 7.00

Entry CCn1c(-c2cccnc2[C@H](C)OC)c2c3cc(ccc31)-c1cc(O)cc(c1)C[C@H](NC(=O)[C@H](C(C)C)N(C)C(=O)[C@]1(F)CCN(C(=O)[C@H]3CN3)C1)C(=O)N1CCC[C@H](N1)C(=O)OCC(C)(C)C2 (atropisomer, axis not shown) — recorded pIC50 = 6.00 to 7.00

Entry CCn1c(-c2cnccc2COC)c2c3cc(ccc31)-c1cccc(c1)C[C@H](NC(=O)[C@H](C(C)C)N(C)C(=O)CCN=C=NCc1ccc(OC)cc1OC)C(=O)N1CCC[C@H](N1)C(=O)OCC(C)(C)C2 — recorded pIC50 = < 5.00

Entry CCn1c(-c2cccnc2[C@H](C)OC)c2c3cc(ccc31)-c1cc(O)cc(c1)C[C@H](NC(=O)[C@H](C(C)C)N(C)C(=O)N1C[C@@H]3[C@H]1CCN3C(=O)[C@H]1CN1)C(=O)N1CCC[C@H](N1)C(=O)OCC(C)(C)C2 (atropisomer, axis not shown) — recorded pIC50 = 6.00 to 7.00

Entry CCn1c(-c2cccnc2[C@H](C)OC)c2c3cc(ccc31)-c1cc(O)cc(c1)C[C@H](NC(=O)[C@H](C1CCCC1)N1CC[C@]3(CCN(C(=O)[C@H]4CN4)C3)C1=O)C(=O)N1CCC[C@H](N1)C(=O)OCC(C)(C)C2 — recorded pIC50 = 7.00 to 8.00

Entry CCn1c(-c2cccnc2[C@H](C)OC)c2c3cc(ccc31)-c1csc(n1)C[C@H](NC(=O)[C@H](C(C)C)N(C)C(=O)N(C)C1CN(C(=O)[C@H]3CN3)C1)C(=O)N1CCC[C@H](N1)C(=O)OCC(C)(C)C2 — recorded pIC50 = 6.00 to 7.00

src = patent US20230233569A1
